Target: T1, human SIRPα v1 ECD recombinant protein (human, UniProt P78324 31-373)
T1 construct: extracellular domain; Coated on the ELISA plate
T1 sequence (P78324 31-373): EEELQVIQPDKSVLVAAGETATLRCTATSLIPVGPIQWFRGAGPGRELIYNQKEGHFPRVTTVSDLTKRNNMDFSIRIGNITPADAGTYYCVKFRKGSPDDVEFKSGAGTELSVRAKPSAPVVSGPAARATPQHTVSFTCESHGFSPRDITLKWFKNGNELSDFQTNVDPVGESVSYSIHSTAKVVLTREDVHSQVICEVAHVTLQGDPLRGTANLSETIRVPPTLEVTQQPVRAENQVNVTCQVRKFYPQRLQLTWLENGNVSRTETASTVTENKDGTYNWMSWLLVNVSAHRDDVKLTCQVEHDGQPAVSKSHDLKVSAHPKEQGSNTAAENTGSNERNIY
Experiment: competitive ELISA, plate-coated human SIRPα v1 ECD; blocked ligand: mFc tagged human CD47 ECD
Method: Competitive ELISA assay was used to determine whether the purified chimeric antibodies can block CD47 and SIRPα interaction. Briefly, antibody and mFc tagged human CD47 ECD recombinant protein were co-incubated with ELISA microplate coated human SIRPα v1 ECD or human SIRPα v2 ECD recombinant protein. […] OD 450 nm was read. Blocking ratio was determined by blockade of human SIRPα ECD recombinant protein binding to ELISA microplate coated human CD47 ECD recombinant protein. […]
measuredParameter: TOP blocking (%)
Give the number; % is assumed, so skip it.

{"binder": "Humanized anti-SIRPα antibody hu025.033 (antibody, V domains shown, Humanized from C25) VH: EVQLVQSGAEVKKPGATVKISCKVSGFNIKDYYMHWVQQAPGKGLEWIGRIDPEDAETKYAPKFQGRVTITADTSTDTAYMELSSLRSEDTAVYYCDRGLAYWGQGTLVTVSS VL: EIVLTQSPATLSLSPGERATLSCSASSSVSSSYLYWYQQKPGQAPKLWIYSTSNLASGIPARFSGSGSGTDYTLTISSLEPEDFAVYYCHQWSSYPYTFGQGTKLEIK", "unitLabel": "%", "endpointValue": 97.2}
{"binder": "Humanized anti-SIRPα antibody hu025.060 (antibody, V domains shown, Humanized from C25) VH: EVQLVQSGAEVKKPGATVKISCKASGFNIKDYYMHWVQQAPGKGLEWIGRIDPEDAETKYAPKFQGRVTITADTSTNTAYMELSSLRSEDTAVYYCDRGLAYWGQGTLVTVSS VL: EIVLTQSPATLSLSPGERATLSCSASSSVSSSYLYWYQQKPGQAPKLWIYSTSNLASGIPARFSGSGSGTDFTLTISSLEPEDFAVYYCHQWSSYPYTFGQGTKLEIK", "unitLabel": "%", "endpointValue": 95.2}
{"binder": "Humanized anti-SIRPα antibody hu025.021 (antibody, V domains shown, Humanized from C25) VH: EVQLVQSGAEVKKPGATVKISCKVSGFNIKDYYMHWVQQAPGKGLEWIGRIDPEDAETKYAPKFQGRVTITADTSTNTAYMELSSLRSEDTAVYYCDRGLAYWGQGTLVTVSS VL: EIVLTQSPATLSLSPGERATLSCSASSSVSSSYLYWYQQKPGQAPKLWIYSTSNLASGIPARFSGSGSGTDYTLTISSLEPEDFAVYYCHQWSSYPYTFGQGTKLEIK", "unitLabel": "%", "endpointValue": 97.7}

Given Humanized anti-SIRPα antibody hu025.023 (antibody, V domains shown, Humanized from C25) VH: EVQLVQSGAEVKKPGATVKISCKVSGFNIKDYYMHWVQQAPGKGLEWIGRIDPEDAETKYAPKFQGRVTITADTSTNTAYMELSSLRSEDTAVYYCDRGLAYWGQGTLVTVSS VL: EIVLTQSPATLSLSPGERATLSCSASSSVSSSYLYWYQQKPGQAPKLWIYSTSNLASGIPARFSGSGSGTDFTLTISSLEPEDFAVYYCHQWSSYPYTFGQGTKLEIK , state its recorded TOP blocking.
97.2

Given Anti-SIRPα antibody C25 (antibody, V domains shown, Mouse variable regions; also called 025c; 025) VH: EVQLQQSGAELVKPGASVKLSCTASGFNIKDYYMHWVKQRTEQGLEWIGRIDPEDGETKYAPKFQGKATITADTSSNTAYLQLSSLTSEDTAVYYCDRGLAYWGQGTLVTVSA VL: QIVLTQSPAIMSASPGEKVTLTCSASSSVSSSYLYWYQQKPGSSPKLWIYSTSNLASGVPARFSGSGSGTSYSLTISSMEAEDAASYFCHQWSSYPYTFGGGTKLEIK , state its recorded TOP blocking.
97.5

Given Humanized anti-SIRPα antibody hu025.059 (antibody, V domains shown, Humanized from C25) VH: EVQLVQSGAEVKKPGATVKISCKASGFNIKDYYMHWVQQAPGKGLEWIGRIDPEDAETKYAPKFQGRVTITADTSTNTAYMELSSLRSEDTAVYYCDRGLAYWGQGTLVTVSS VL: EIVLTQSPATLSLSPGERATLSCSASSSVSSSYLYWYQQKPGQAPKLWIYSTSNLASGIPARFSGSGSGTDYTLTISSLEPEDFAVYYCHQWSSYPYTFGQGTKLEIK , state its recorded TOP blocking.
97.1
